- experimental target: human D2 receptor (Homo sapiens)
- Construct: host or cells: CHO-K1
- Sequence (P14416 whole entry): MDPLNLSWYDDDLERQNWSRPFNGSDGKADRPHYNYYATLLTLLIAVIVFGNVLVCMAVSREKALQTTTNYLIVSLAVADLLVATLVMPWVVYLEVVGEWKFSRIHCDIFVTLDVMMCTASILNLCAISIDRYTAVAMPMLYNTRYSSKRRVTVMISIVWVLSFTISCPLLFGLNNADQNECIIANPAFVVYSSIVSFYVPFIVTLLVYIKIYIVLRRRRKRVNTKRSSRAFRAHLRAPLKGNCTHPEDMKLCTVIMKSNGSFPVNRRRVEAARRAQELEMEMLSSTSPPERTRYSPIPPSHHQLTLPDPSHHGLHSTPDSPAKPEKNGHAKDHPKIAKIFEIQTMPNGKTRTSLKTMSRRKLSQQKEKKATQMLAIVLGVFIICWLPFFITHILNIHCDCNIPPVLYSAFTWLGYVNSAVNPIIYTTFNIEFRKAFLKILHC
- assay overview: Dopamine assay: functional cAMP read-out (HitHunter cAMP XS+, Gi/o agonist format)
- Format: cell-based
- protocol conditions: CHO-K1 cells overexpressing the human D2 receptor, cAMP read-out, 25 µM forskolin, n = 2 independent experiments; read-out: EC50 at the D2 receptor
pEC50: −log10 of the molar value.
Measured pEC50, listed per entry for reference.

Would you please look over these solved cases?
- molecule: "C[C@@H]1CC[C@]2(C(=O)O)CC[C@]3(C)C(=CC[C@@H]4[C@@]5(C)C[C@@H](O)[C@H](O)C(C)(C)[C@@H]5CC[C@]43C)[C@@H]2[C@]1(C)O [compound 12, Tormentic acid]"
  pEC50: "< 4.30"
- molecule: "C[C@H]1[C@H](C)CC[C@]2(C(=O)O)CC[C@]3(C)C(=CC[C@@H]4[C@@]5(C)CC[C@H](O)C(C)(C)[C@@H]5CC[C@]43C)[C@H]12 [ursolic acid, reference compound]"
  pEC50: "≤ 4.30"

Query molecule follows.
-- ask # input molecule: CC(=O)O[C@@H]1C[C@@H](C)[C@](O)(CCC2=CC(=O)OC2)[C@@]2(C)CCCC(C)(C)[C@H]12 [compound 3, Vitexilactone] ; wanted: its pEC50
-- reply < 4.30
